MEASUREMENT TARGET: Kappa-type opioid receptor (Homo sapiens) (UniProt P41145)
Sequence (P41145 whole entry, looked up): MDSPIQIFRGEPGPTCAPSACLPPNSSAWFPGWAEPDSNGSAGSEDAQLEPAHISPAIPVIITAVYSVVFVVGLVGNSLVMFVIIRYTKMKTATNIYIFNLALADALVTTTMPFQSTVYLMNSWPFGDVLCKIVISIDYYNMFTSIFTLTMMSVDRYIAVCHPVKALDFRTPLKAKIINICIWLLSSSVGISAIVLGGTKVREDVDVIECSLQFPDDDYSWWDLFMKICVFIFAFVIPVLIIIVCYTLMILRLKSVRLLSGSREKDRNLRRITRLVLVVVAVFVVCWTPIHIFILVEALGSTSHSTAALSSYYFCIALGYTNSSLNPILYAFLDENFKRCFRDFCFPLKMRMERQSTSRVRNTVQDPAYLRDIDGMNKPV
PROTOCOL TEXT: kappa opioid receptor blockers – cell-based, luminescence, uHTS (AID 1778)
CONDITION CONTEXT: KOR beta-arrestin recruitment, antagonist mode, hits give high values; at 10 µM unless noted
About 260 (0.09%) of roughly 290,000 compounds were called active. Shown is part of a subset that was picked to be rich in actives. Entries with a potency or affinity are not part of this list.

>  <SMILES NOTATION>
O=C(OCC(=O)c1ccc(Cl)s1)c1ccccn1

>  <inhibition>
34% (inactive)

$$$$
>  <SMILES NOTATION>
O=C(Nc1nc2c(F)cc(F)cc2s1)c1ccco1

>  <inhibition>
-20.5% [at 20 µM] (inactive)

$$$$
>  <SMILES NOTATION>
O=C(Nc1nnc(SCc2ccc(F)cc2)s1)c1cnccn1

>  <inhibition>
-29.3% [at 20 µM] (inactive)

$$$$
>  <SMILES NOTATION>
COC(=O)c1ccc(N/N=C/c2cc([N+](=O)[O-])cc(OC)c2O)cc1

>  <inhibition>
-4.6% (inactive)

$$$$
>  <SMILES NOTATION>
CCOc1ccc(C(=O)Nc2ccc3c(c2)OCCO3)cc1

>  <inhibition>
-31.1% (inactive)

$$$$
>  <SMILES NOTATION>
O=C(Nc1nnc(SCc2ccc(F)cc2)s1)c1cccnc1Cl

>  <inhibition>
13% (inactive)

$$$$
>  <SMILES NOTATION>
O=C(N/N=C/c1cc(Br)cc([N+](=O)[O-])c1O)c1ccc(NC(=O)c2ccc(F)cc2)cc1

>  <inhibition>
-22.2% (inactive)

$$$$
>  <SMILES NOTATION>
CCOc1ccc2nc(NC(=O)c3cnccn3)sc2c1

>  <inhibition>
-3.8% (inactive)

$$$$
>  <SMILES NOTATION>
O=C(Nc1nc2ccc(F)cc2s1)c1cccs1

>  <inhibition>
-4.2% (inactive)

$$$$
>  <SMILES NOTATION>
Cc1ccn2c(CNCCCn3cccn3)c(C(=O)N3CCCCCC3)nc2c1

>  <inhibition>
13.8% [at 20 µM] (inactive)

$$$$

###

MEASUREMENT TARGET: Kappa-type opioid receptor (Homo sapiens)
PROTOCOL TEXT: kappa opioid receptor blockers – cell-based, luminescence, uHTS (AID 1778)
CONDITION CONTEXT: KOR beta-arrestin recruitment, antagonist mode; at 10 µM unless noted
The whole screen tested about 290,000 compounds, of which about 260 (0.09%) were called active. No stated cut-off is given here; in the data, active means inhibition above about 50%; inactive means the rest. Only a selection was taken, and actives are over-represented in it overall. Potency and affinity values are given separately.
Outcomes: 1 = active, 0 = inactive

>  <MOLECULE>
CCOC(=O)c1[nH]c(C)c(C(=O)OCc2c(C)noc2C)c1C

>  <GROUP LABEL>
0

$$$$
>  <MOLECULE>
Cc1ccc(NC(=O)c2nc(S(=O)(=O)Cc3ccccc3)ncc2Cl)cc1

>  <GROUP LABEL>
0

$$$$
>  <MOLECULE>
Cc1ccccc1NC(=O)COC(=O)c1ccc(S(C)(=O)=O)c([N+](=O)[O-])c1

>  <GROUP LABEL>
1

$$$$
>  <MOLECULE>
COc1ccc(CCC(N)=O)cc1OC

>  <GROUP LABEL>
0

$$$$
>  <MOLECULE>
CC(C)NC(=S)n1cc(C(=O)c2cc(Cl)cc(Cl)c2O)cn1

>  <GROUP LABEL>
0

$$$$
>  <MOLECULE>
CC(=O)Nc1ccc(NC(=O)c2nc(S(=O)(=O)Cc3ccccc3)ncc2Cl)cc1

>  <GROUP LABEL>
0

$$$$
>  <MOLECULE>
N#C/C(=C/c1ccco1)C(N)=S

>  <GROUP LABEL>
0

$$$$
>  <MOLECULE>
CCOc1ccc(CCNS(=O)(=O)c2cnc[nH]2)cc1OCC

>  <GROUP LABEL>
0

$$$$
>  <MOLECULE>
Cn1ccnc1SCc1nc2c(cnn2-c2ccccc2)c(=O)[nH]1

>  <GROUP LABEL>
0

$$$$
>  <MOLECULE>
CC(CCc1ccccc1)NC(=O)COC(=O)c1ccc(S(C)(=O)=O)c([N+](=O)[O-])c1 (stereo unspecified)

>  <GROUP LABEL>
0

$$$$
>  <MOLECULE>
CCOc1ccc(C(=O)/C=C/Nc2ccc(S(=O)(=O)Nc3onc(C)c3C)cc2)cc1

>  <GROUP LABEL>
0

$$$$
